// growth lookup, one value per entry
Test system: HL-60(TB) leukemia
ASSAY_REMARKS: NCI-60 one-dose screen, 48 h (100 = growth as untreated, 0 = no growth, -100 = all killed)
TEST_SETTINGS: 10 µM unless noted
This is part of a sample that, as a whole, favours compounds with a hit. Of some 83,000 tested, about 20% had one in any assay.
Give your result in % as a bare value.

Examples with answers:
Q. Suppose we examine the compound `COc1cc(/C=C2\C(=O)Nc3cc(Cl)ccc32)ccc1OCc1ccc(F)cc1` ; what growth value has been reported?
A. 120

Q. Suppose we examine the compound `O=c1[nH]c2ccccc2cc1CSc1ccccc1Nc1nccc(-c2ccc(Cl)cc2)n1` ; what growth value has been reported?
A. 102

Then there is this compound:
Q. Suppose we examine the compound `C#CCN(C)CCCOc1ccc(NC(=O)CCCCCCCCC(=O)NO)cc1Cl` ; what growth value has been reported?
A. 28.6

###

Tested on: SF-539 CNS
ASSAY_REMARKS: NCI-60 one-dose screen, 48 h (100 = growth as untreated, 0 = no growth, -100 = all killed)
TEST_SETTINGS: 10 µM
Method: Cells are grown in 96 well plates and exposed to the test compound for 48 hours. Compounds are tested at a single concentration, which is 10^-5 M for most compounds. The reported endpoint is percent growth (GI% or GIPRCNT), where numbers from 0 - 100% represent growth inhibition, and numbers from -100% - 0 represent cell death. For example, a value of 40 represents 60% growth inhibition. A value of 0 means no net growth occurred over the course of the experiment. […]
About 83,000 compounds went through this panel and 20% of them were active in at least one assay; those are over-represented in the sample as a whole.
PROPERTY_LABEL: growth (%)
Give your result in % as a bare value.

Q. Suppose we examine the compound `CN(CCF)/N=N/c1nc[nH]c1C(N)=O` ; what growth value has been reported?
A. 38.5

Q. Suppose we examine the compound `CC1=C(CN(O)C(N)=O)C2=C(C)C3(CC3)[C@](C)(O)C(=O)C2=C1` ; what growth value has been reported?
A. -1.94

More entries:
Q. Suppose we examine the compound `CC1=C2C(=O)[C@](C)(CO)C=C2C(=O)[C@](C)(O)C12CC2` ; what growth value has been reported?
A. 4.6

Q. Suppose we examine the compound C=C1[C@@H](C)C2[C@H](Cc3ccccc3)NC(=O)[C@]23[C@H](OC(C)=O)/C=C/[C@@](C)(O)C(=O)[C@@H](C)C/C=C/[C@H]3[C@@H]1O (some centres not stated) ; what growth value has been reported?
A. 24

Q. Suppose we examine the compound `O=C(CCCc1ccc(N(CCCl)CCCl)cc1)OCc1ccccc1` ; what growth value has been reported?
A. 85.2

Q. Suppose we examine the compound `COc1cc2c(O[C@@H]3OC[C@H](OC(C)=O)[C@H](OC(C)=O)[C@H]3O)c3c(c(-c4ccc5c(c4)OCO5)c2cc1OC)C(=O)OC3` ; what growth value has been reported?
A. 25.6

Q. Suppose we examine the compound `COc1cc2c(O[C@@H]3OC[C@H](O)[C@H](O)[C@H]3O)c3c(c(-c4ccc5c(c4)OCO5)c2cc1OC)C(=O)OC3` ; what growth value has been reported?
A. 53.6

###

// growth lookup, one value per entry
Test system: HL-60(TB) leukemia
ASSAY_REMARKS: NCI-60 one-dose screen, 48 h (100 = growth as untreated, 0 = no growth, -100 = all killed)
TEST_SETTINGS: 10 µM unless noted
About 83,000 compounds went through this panel and 20% of them were active in at least one assay; those are over-represented in the sample as a whole.
Give your result in % as a bare value.

Q. Suppose we examine the molecule `CCCCCCNC(=O)Oc1ccc(/C(=C(/C)c2ccc(OC)cc2)c2ccc(OCCN3CCCCCC3)cc2)cc1` ; what growth value has been reported?
A. -0.81

Q. Suppose we examine the molecule `CC(=O)OC[C@@]12Oc3c(cccc3-c3ccc(O)c4c3O[C@]3(COC(C)=O)C(=C4O)C(=O)C[C@H](C)[C@@H]3OC(C)=O)C(O)=C1C(=O)C[C@H](C)[C@@H]2OC(C)=O` ; what growth value has been reported?
A. -46.3

Q. Suppose we examine the molecule `Cc1ccc(/C=N/Nc2nc(Nc3ccccc3)nc(Nc3ccc(S(N)(=O)=O)cc3)n2)cc1` ; what growth value has been reported?
A. 75.2

Q. Suppose we examine the molecule `CCn1c2ccc(/C=N/OCCCN(C)C)cc2c2cc(/C=N/OCCCN(C)C)ccc21` ; what growth value has been reported?
A. -36.9

Q. Suppose we examine the molecule `O=C1[C@H]2Cc3c([nH]c4ccccc34)[C@H](c3ccc(Cl)cc3)N2C(=O)CN1C1CCN(Cc2c(Cl)cccc2Cl)CC1` ; what growth value has been reported?
A. 62.1

###

Test system: HL-60(TB) leukemia
ASSAY_REMARKS: NCI-60 one-dose screen, 48 h (100 = growth as untreated, 0 = no growth, -100 = all killed)
TEST_SETTINGS: 10 µM unless noted
The panel holds about 83,000 compounds, 20% with a hit somewhere; the sample as a whole holds those more often.
PROPERTY_LABEL: growth (%)
Give your result in % as a bare value.

Q. Suppose we examine the compound CC(C)(C)n1nnnc1C(Nc1nccs1)c1cc2cccc3ccc4cccc1c4c32 (centres undefined) ; what growth value has been reported?
A. 90.2

Q. Suppose we examine the compound `COc1cc(/C=N/n2cnc3oc(-c4ccccc4)cc3c2=N)cc(CN2CCOCC2)c1O` ; what growth value has been reported?
A. 88.9

Q. Suppose we examine the compound `COc1ccc(N2CCN(C3=C(Cl)C(=O)c4ncccc4C3=O)CC2)cc1` ; what growth value has been reported?
A. -4.99

More entries:
Q. Suppose we examine the compound `O=C(/C=C/c1cccc(Br)c1)c1cccc(OCCCCOc2cccc(C(=O)/C=C/c3cccc(Br)c3)c2)c1` ; what growth value has been reported?
A. 95.3

###

Test system: HL-60(TB) leukemia
ASSAY_REMARKS: NCI-60 one-dose screen, 48 h (100 = growth as untreated, 0 = no growth, -100 = all killed)
TEST_SETTINGS: 10 µM unless noted
Compounds without any hit were thinned out: in the full panel of roughly 83,000, 20% have a hit. Activity calls are given as the source filed them. How the source made its calls: active means growth percent below 10; inactive means the rest.
PROPERTY_LABEL: growth

Examples with answers:
Q. Give the reported growth for `O=C(CN1CCN(c2cc(=O)n(-c3ccccc3)c3ccccc23)CC1)Nc1nc(-c2ccccc2)cs1` (system: HL-60(TB) leukemia).
A. 37.1% (inactive)

Q. Give the reported growth for COc1cc(C2=NN(C(C)=O)C(c3ccc(N4CCOCC4)cc3)C2)cc(OC)c1OC (stereo not drawn) (system: HL-60(TB) leukemia).
A. 105% (inactive)

More entries:
Q. Give the reported growth for COc1ccc(N2C(=O)c3cc(OC)c(OC)cc3NC2SCc2ccccc2)cc1 (stereo not drawn) (system: HL-60(TB) leukemia).
A. 110% (inactive)

###

System: HL-60(TB) leukemia
ASSAY_REMARKS: NCI-60 one-dose screen, 48 h
TEST_SETTINGS: 10 µM unless noted
This is part of a sample that, as a whole, favours compounds with a hit. Of some 83,000 tested, about 20% had one in any assay. Activity calls are given as the source filed them. How the source made its calls: active means growth percent below 10; inactive means the rest.
Respond with a class label; see true (active), false (inactive)

Q. Call for entry `CS(=O)(=O)c1ccc2c(c1)c1c(n2S(=O)(=O)c2ccc(Cl)cc2)CCCC1` :
A. true

More entries:
Q. Call for entry `Cn1cc(-c2nnc(N)nc2-c2c[nH]c3ccc(F)cc23)c2cc(Br)ccc21` :
A. true

Q. Call for entry `C(=N\Nc1nc(N/N=C/c2ccc3c(c2)OCO3)nc(N2CCCCC2)n1)/c1ccc2c(c1)OCO2` :
A. false

Q. Call for entry `C[C@@H](Nc1ncnc2ccc(-c3cnc(Cl)c(NS(C)(=O)=O)c3)cc12)c1ccccc1` :
A. false

Q. Call for entry CCOC(=O)C1=C(C)NC(C)=C(C(=O)OC(C)C)C1c1cccc(C#N)c1 (stereo not given) :
A. false

###

System: HL-60(TB) leukemia
ASSAY_REMARKS: NCI-60 one-dose screen, 48 h
TEST_SETTINGS: 10 µM unless noted
The panel holds about 83,000 compounds, 20% with a hit somewhere; the sample as a whole holds those more often. The source made the active and inactive calls. Rule for the calls: active = growth percent below 10; inactive = the rest.
Respond with a class label; see class 1 for active, class 0 for inactive

Q. Call for entry `N/C(=N\C(N)=N\c1nc2ccccc2s1)c1ccc2ccccc2c1` :
A. class 0

###

Tested on: HL-60(TB) leukemia
ASSAY_REMARKS: NCI-60 one-dose screen, 48 h
TEST_SETTINGS: 10 µM unless noted
The panel holds about 83,000 compounds, 20% with a hit somewhere; the sample as a whole holds those more often. Activity calls are given as the source filed them. How the source made its calls: active means growth percent below 10; inactive means the rest.
Respond with a class label; see true = active, false = inactive

Answered cases to consult:
Q. Call for entry `CCOC(=O)c1c(NCC(=O)Nc2cccc([N+](=O)[O-])c2)sc2c1CCCC2` :
A. true

Q. Call for entry COC(=O)C(C)NS(=O)(=O)/N=C1\NC(=O)NC1=C(Cl)Cl (centres undefined) :
A. false

More entries:
Q. Call for entry `N#Cc1c(-n2c(Br)c(Br)c3cc(Br)ccc32)[nH]c2c(Br)cc(Br)cc12` :
A. true

Q. Call for entry `CN(C)c1ccc(/C=C2\Cc3c(F)ccc(Br)c3C2=O)cc1` :
A. false

Q. Call for entry `O=C(Nc1cccc(-c2nc(-c3ccc(NC(=O)c4cccs4)cc3Cl)no2)c1)Nc1ccc(NC(=O)C2CC2)c(C(F)(F)F)c1` :
A. true

Q. Call for entry `Cc1ccc(C(=O)Nc2cccc(C(F)(F)F)c2)cc1Nc1nc(-c2cnccn2)nc2c1cnn2C` :
A. false
